pIC50: −log10 of the molar value.
Below are compounds with their pIC50 as measured on Aminopeptidase N (Sus scrofa).
Sequence (P15145 whole entry): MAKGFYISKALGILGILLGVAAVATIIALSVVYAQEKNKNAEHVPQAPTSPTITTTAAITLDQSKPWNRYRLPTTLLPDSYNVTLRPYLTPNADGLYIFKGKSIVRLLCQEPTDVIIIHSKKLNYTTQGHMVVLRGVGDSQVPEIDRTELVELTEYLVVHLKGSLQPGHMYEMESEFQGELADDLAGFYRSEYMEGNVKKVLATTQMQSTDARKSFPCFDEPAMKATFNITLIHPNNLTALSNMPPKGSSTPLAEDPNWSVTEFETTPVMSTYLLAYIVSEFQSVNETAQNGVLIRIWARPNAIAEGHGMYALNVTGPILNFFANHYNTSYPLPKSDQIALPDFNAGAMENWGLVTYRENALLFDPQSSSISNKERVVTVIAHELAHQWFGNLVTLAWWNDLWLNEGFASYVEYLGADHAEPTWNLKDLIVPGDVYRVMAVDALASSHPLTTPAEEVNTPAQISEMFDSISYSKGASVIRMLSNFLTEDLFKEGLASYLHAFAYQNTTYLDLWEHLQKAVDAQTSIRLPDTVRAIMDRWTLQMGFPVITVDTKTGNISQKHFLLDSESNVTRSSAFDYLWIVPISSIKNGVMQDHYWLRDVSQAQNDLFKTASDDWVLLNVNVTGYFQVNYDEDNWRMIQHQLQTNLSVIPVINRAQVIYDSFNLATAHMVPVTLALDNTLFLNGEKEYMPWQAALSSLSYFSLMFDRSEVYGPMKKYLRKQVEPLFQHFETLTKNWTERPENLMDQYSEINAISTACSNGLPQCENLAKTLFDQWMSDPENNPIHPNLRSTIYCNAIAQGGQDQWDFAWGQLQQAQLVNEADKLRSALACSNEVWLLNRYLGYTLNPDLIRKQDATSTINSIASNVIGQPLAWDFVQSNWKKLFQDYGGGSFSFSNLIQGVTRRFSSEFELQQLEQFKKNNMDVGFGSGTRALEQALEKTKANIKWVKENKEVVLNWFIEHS
readout-kind: pIC50

# annotated cases, reported pIC50 shown
- compound: "CC(CC(=O)O)NC(=O)C(CC(=O)NO)Cc1ccccc1 (stereo in doubt; C)"
  target-system: "Aminopeptidase N (Sus scrofa)"
  readout-kind: "pIC50"
  value-measured: 6.46
- compound: "O=C(O)CCNC(=O)C(CC(=O)NO)Cc1ccccc1 (stereo not given)"
  target-system: "Aminopeptidase N (Sus scrofa)"
  readout-kind: "pIC50"
  value-measured: 6.17

A = O=C(O)CCCCNC(=O)C(CC(=O)NO)Cc1ccccc1 (stereo not given)
B = CN(C(=O)C(CC(=O)NO)Cc1ccccc1)C(Cc1ccccc1)C(=O)O (stereo not given)
C = O=C(O)C[C@H](Cc1ccccc1)NC(=O)[C@H](CC(=O)NO)Cc1ccccc1
Challenge: Sort entries by pIC50 from minimum to maximum value. Quick reminder: the answer is the labels in the order asked.
Response given: C, A, B
(C: 5.84, A: 6.30, B: 6.92)

Taken from ChEMBL document CHEMBL1124520.
